tested on: HL-60(TB) leukemia; assay: NCI tumour cell line growth inhibition, 48 h
quantity: TGI (µM)
Answers are plain numbers, in µM.

compound	target.under.test	TGI, µM
O=C1N[C@H]2c3c(Cl)sc(Cl)c3/C(=N/O)[C@H]2O1	HL-60(TB) leukemia	57.9
COc1cc(C(=O)OCCCCCCCCCCC[P+](c2ccccc2)(c2ccccc2)c2ccccc2)ccc1O	HL-60(TB) leukemia	0.734
CN(C)c1ccc2c(c1)C(=O)N(OS(=O)(=O)c1ccc([N+](=O)[O-])cc1)C2=O	HL-60(TB) leukemia	76
CCN(CC)CCNC(=O)c1ccccc1NC(=O)C(=O)Nc1ccccc1C(=O)NCCN(CC)CC	HL-60(TB) leukemia	32.4

Can you give me TGI for all of these, one by one?
1. CCCCNC1CCC2(SCCS2)c2[nH]c3ccccc3c21 (stereo not drawn)
2. O=C(CP(c1ccccc1)c1ccccc1)c1cccc(C(=O)CP(c2ccccc2)c2ccccc2)c1
3. C#CCC[C@@H]1O[C@@]1(C)CC/C=C(\C)CC/C=C/C=O
4. CN(C)CCNc1ccc(C(=O)NCCCN(C)CCCNC(=O)c2ccc(NCCN(C)C)c3c(=O)c4ccccc4[nH]c23)c2[nH]c3ccccc3c(=O)c12
5. COc1ccc(Cn2c(C)nc3c2C(=O)c2ccccc2C3=O)cc1

[8.05, 42.8, 60.8, 2.74, 22.2]
